Hey, just so you know, these numbers are from patent US9084766B2.

assay: Phase I clinical trial: plasma pharmacokinetics; type: in vivo, human; conditions: human, plasma, oral, patient 20, Fasting
readout-name: Tmax

{"columns": ["compound", "readout-name", "result-value"],
 "data": [
  ["CC(=O)c1cc2c(o1)C(=O)c1ccccc1C2=O [Compound 1]", "Tmax", "2 h"]
]}

---

assay: Phase I clinical trial: plasma pharmacokinetics; format: in vivo, human; details: human, plasma, oral, 1400 mg, total daily dose 1400 mg, BID dosing; read-out: AUC0-24
readout-name: AUC(0-t) (µM·h)

{"columns": ["compound-structure", "result-value"],
 "data": [
  ["CC(=O)c1cc2c(o1)C(=O)c1ccccc1C2=O", 28.4]
]}

---

system: CD34+ BM Myeloid; assay: IC50 versus treatment time, CD34+ BM Myeloid; assay type: cell-based; conditions: normal cells CD34+ BM Myeloid, treatment time 12-24 h

{"columns": ["compound-structure", "target-of-assay", "IC50"],
 "data": [
  ["CC(=O)c1cc2c(o1)C(=O)c1ccccc1C2=O", "CD34+ BM Myeloid", "> 30 µM"]
]}

---

Experiment: Phase I clinical trial: plasma pharmacokinetics
Format: in vivo, human
Conditions: human, plasma, oral, patient 27, With Milk
Description: A favorable PK profile with oral bid dosing was also observed. The plasma concentration reached several folds over efficacious concentration (in vitro IC50). In yet another suitable dosing regimen, Compound 1 is administered with food which delays the Tmax (Table 13).
readout-name: Tmax

{"columns": ["compound-structure", "result-value"],
 "data": [
  ["CC(=O)c1cc2c(o1)C(=O)c1ccccc1C2=O", "30 min"]
]}

---

test system: HT29; assay: IC50 versus treatment time, HT29; type: cell-based; details: Homo sapiens, HT-29; HT29 cancer cells, treatment time 4-12 h

{"columns": ["compound-structure", "IC50"],
 "data": [
  ["CC(=O)c1cc2c(o1)C(=O)c1ccccc1C2=O", "< 500 nM"]
]}

---

assay: Phase I clinical trial: plasma pharmacokinetics; format: in vivo, human; settings: human, plasma, oral, patient 27, With Food

{"columns": ["molecule", "Tmax [h]"],
 "data": [
  ["CC(=O)c1cc2c(o1)C(=O)c1ccccc1C2=O [Compound 1]", 6]
]}

---

test: Phase I clinical trial: plasma pharmacokinetics; assay type: in vivo, human; conditions: human, plasma, oral, 400 mg, total daily dose 400 mg, BID dosing; read-out: AUC0-24

{"columns": ["compound-structure", "reading-unit", "AUC(0-t)"],
 "data": [
  ["CC(=O)c1cc2c(o1)C(=O)c1ccccc1C2=O", "µM·h", 53.6]
]}

---

experiment: Phase I clinical trial: plasma pharmacokinetics; assay type: in vivo, human; details: human, plasma, oral, 1000 mg, total daily dose 1000 mg, BID dosing; read-out: AUC0-24
readout-name: AUC(0-t) (µM·h)

{"columns": ["compound", "readout-name", "result-value"],
 "data": [
  ["CC(=O)c1cc2c(o1)C(=O)c1ccccc1C2=O [Compound 1]", "AUC(0-t)", 42.6]
]}

---

system: DU145; test: IC50 versus treatment time, DU145; type: cell-based; conditions: Homo sapiens, DU-145; DU145 cancer cells, treatment time 4-12 h
pIC50: −log10 of the molar value.

{"columns": ["compound-structure", "target-of-assay", "pIC50"],
 "data": [
  ["CC(=O)c1cc2c(o1)C(=O)c1ccccc1C2=O", "DU145", "> 6.70"]
]}
